Entries and their MIC values follow.
- System: Enterococcus faecalis
- Experiment Summary: Minimal inhibitory concentration against Enterococcus faecalis ATCC 29212
- Format: functional
Entry rule: numbers only, all in µg/mL.

CC(=O)NC[C@H]1CN(c2ccc(Sc3ccc(NC(C)=O)cc3)c(F)c2)C(=O)O1
2
CO/C(S)=N\C[C@H]1CN(c2ccc(Oc3ccc(NC(C)=O)cc3)c(F)c2)C(=O)O1
8
CC(=O)Nc1ccc(Oc2ccc(N3C[C@H](C/N=C(/S)NN)OC3=O)cc2F)cc1
4

Name the recorded MIC of the item `CC(=O)Nc1ccc(Sc2ccc(N3C[C@H](C/N=C(\N)S)OC3=O)cc2F)cc1` in your answer.
2

Reference source for all entries: ChEMBL document CHEMBL1137831
